Cited source for all entries: ChEMBL document CHEMBL1151478

# Tested on: A549
# measurementNotes: Cytotoxicity against human A549 cells after 48 hrs by WST-8 assay
# Format: functional, cell-based
# conditionInfo: A549, 48 h
pIC50: −log10 of the molar value.
measurementName: pIC50

Example entries begin here.
C=C1C(=O)[C@@]23CC[C@@H]4[C@@](C)(CO)CC[C@H](O)[C@@]4(C)[C@@H]2CC[C@@H]1[C@H]3O [EXCISANIN K]	< 5.00
C=C1[C@@H](O)[C@@]23[C@H](O)C[C@@H]4[C@@](C)(CO)CCC[C@@]4(C)[C@@H]2C(=O)C[C@@H]1[C@H]3O	< 5.00

// pIC50 value for `C=C1[C@@H]2[C@@H](O)[C@H](O)[C@H]3[C@]4(C)CCCC(C)(C)[C@H]4CC(=O)[C@@]3([C@@H]1OC(C)=O)[C@@H]2O` : 5.00

// pIC50 value for `C=C1C(=O)[C@@]23[C@H](O)C[C@@H]4[C@@](C)(CO)CCC[C@@]4(C)[C@@H]2[C@@H](O)C[C@@H]1[C@H]3O` : < 5.00

// pIC50 value for `C=C1C(=O)[C@@]23[C@H](O)C[C@@H]4[C@@](C)(CO)CCC[C@@]4(C)[C@@H]2C[C@H](O)[C@@H]1[C@H]3O` : < 5.00

// pIC50 value for `C=C1C(=O)[C@@]23[C@H](O)C[C@@H]4C(C)(C)CCC[C@@]4(C)[C@@H]2C[C@H](O)[C@@H]1[C@H]3O` : 5.19

----------
# Test system: A549
# measurementNotes: Cytotoxicity against human A549 cells after 48 hrs by WST-8 assay
# Assay type: functional, cell-based
# conditionInfo: A549, 48 h
measurementName: IC50

Example entries begin here.
C=C1C(=O)[C@@]23[C@H](O)C[C@@H]4C(C)(C)CC[C@H](O)[C@@]4(C)[C@@H]2C[C@H](O)[C@@H]1[C@H]3O [EXCISANIN A]	> 10 µM
C=C1C(=O)[C@@]23[C@H](O)C[C@@H]4C(C)(C)CCC[C@@]4(C)[C@@H]2C(=O)[C@H](O)[C@@H]1[C@H]3O	> 10 µM
C=C1C(=O)[C@@]23[C@H](O)C[C@@H]4[C@@](C)(CO)CCC[C@@]4(C)[C@@H]2C(=O)[C@H](O)[C@@H]1[C@H]3O	> 10 µM
CC(=O)O[C@H]1C(=O)[C@@]2(C)[C@H]([C@H](OC(=O)c3ccccc3)[C@]3(O)C[C@H](OC(=O)[C@H](O)[C@@H](NC(=O)c4ccccc4)c4ccccc4)C(C)=C1C3(C)C)[C@]1(OC(C)=O)CO[C@@H]1C[C@@H]2O	0.1 µM

// IC50 value for `C=C1C(=O)[C@@]23[C@H](O)C[C@@H]4[C@@](C)(CO)CCC[C@@]4(C)[C@@H]2C(=O)C[C@@H]1[C@H]3O` : > 10 µM

----------
# System: A549
# measurementNotes: Cytotoxicity against human A549 cells after 48 hrs by WST-8 assay
# Assay type: functional, cell-based
# conditionInfo: A549, 48 h
Listed next: entries and their corresponding IC50.
// return numeric value only (unit: µM, not printed)

C=C1C(=O)[C@@]23[C@H](O)C[C@@H]4C(C)(C)CC[C@H](O)[C@@]4(C)[C@@H]2CC[C@@H]1[C@H]3O	7.3

Per the reported A549 data, COc1cc([C@@H]2c3cc4c(cc3[C@@H](O[C@@H]3O[C@@H]5CO[C@@H](C)O[C@H]5[C@H](O)[C@H]3O)[C@H]3COC(=O)[C@H]23)OCO4)cc(OC)c1O [ETOPOSIDE] has IC50 of 1.7

Per the reported A549 data, `C=C1C(=O)[C@@]23[C@H](O)C[C@@H]4C(C)(C)CCC[C@@]4(C)[C@@H]2[C@@H](O)[C@H](O)[C@@H]1[C@H]3OC(C)=O` has IC50 of 2.8

Per the reported A549 data, `C=C1C(=O)[C@@]23[C@H](O)C[C@@H]4C(C)(C)CCC[C@@]4(C)[C@@H]2[C@@H](O)[C@H](O)[C@@H]1[C@H]3O` has IC50 of 1.7
